Experimental Target: T1, human ICOS, full-length, expressed on transfected Expi293 cells (human, UniProt Q9Y6W8 21-199)
T1 construct: whole, on cells
T1 sequence (looked up): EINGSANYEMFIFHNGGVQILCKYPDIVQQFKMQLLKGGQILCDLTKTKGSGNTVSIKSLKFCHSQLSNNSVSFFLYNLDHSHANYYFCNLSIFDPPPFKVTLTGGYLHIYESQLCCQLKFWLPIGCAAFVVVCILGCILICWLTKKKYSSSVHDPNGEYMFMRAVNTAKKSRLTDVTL
Procedure Summary: flow cytometry, 100 nM, Expi293 cells with human ICOS
Measured Parameter: MFI ratio to WT (ΔWT) (fold)
Give the value in fold but do not write fold after it.

[ask] Record request: MFI ratio to WT (ΔWT) value, item variant ICOSL IgV-Fc fusion N52M/N57W/Q100P (Fc fusion) DTQEKEVRAMVGSDVELSCACPEGSRFDLNDVYVYWQTSESKTVVTYHIPQMSSLEWVDSRYRNRALMSPAGMLRGDFSLRLFNVTPQDEQKFHCLVLSPSLGFQEVLSVEVTLHVAANFSVGSGGGGSEPKSSDKTHTCPPCPAPEAEGAPSVFLFPPKPKDTLMISRTPEVTCVVVDVSHEDPEVKFNWYVDGVEVHNAKTKPREEQYNSTYRVVSVLTVLHQDWLNGKEYKCKVSNKALPAPIEKTISKAKGQPREPQVYTLPPSREEMTKNQVSLTCLVKGFYPSDIAVEWESNGQPENNYKTTPPVLDSDGSFFLYSKLTVDKSRWQQGNVFSCSVMHEALHNHYTQKSLSLSPG
[reply] 1.52

[ask] Follow-up entry: variant ICOSL IgV-Fc fusion N52Q/N57F (Fc fusion) DTQEKEVRAMVGSDVELSCACPEGSRFDLNDVYVYWQTSESKTVVTYHIPQQSSLEFVDSRYRNRALMSPAGMLRGDFSLRLFNVTPQDEQKFHCLVLSQSLGFQEVLSVEVTLHVAANFSVGSGGGGSEPKSSDKTHTCPPCPAPEAEGAPSVFLFPPKPKDTLMISRTPEVTCVVVDVSHEDPEVKFNWYVDGVEVHNAKTKPREEQYNSTYRVVSVLTVLHQDWLNGKEYKCKVSNKALPAPIEKTISKAKGQPREPQVYTLPPSREEMTKNQVSLTCLVKGFYPSDIAVEWESNGQPENNYKTTPPVLDSDGSFFLYSKLTVDKSRWQQGNVFSCSVMHEALHNHYTQKSLSLSPG
[reply] 0.91

[ask] Follow-up entry: variant ICOSL IgV-Fc fusion N52R/N57L/Q100A (Fc fusion) DTQEKEVRAMVGSDVELSCACPEGSRFDLNDVYVYWQTSESKTVVTYHIPQRSSLELVDSRYRNRALMSPAGMLRGDFSLRLFNVTPQDEQKFHCLVLSASLGFQEVLSVEVTLHVAANFSVGSGGGGSEPKSSDKTHTCPPCPAPEAEGAPSVFLFPPKPKDTLMISRTPEVTCVVVDVSHEDPEVKFNWYVDGVEVHNAKTKPREEQYNSTYRVVSVLTVLHQDWLNGKEYKCKVSNKALPAPIEKTISKAKGQPREPQVYTLPPSREEMTKNQVSLTCLVKGFYPSDIAVEWESNGQPENNYKTTPPVLDSDGSFFLYSKLTVDKSRWQQGNVFSCSVMHEALHNHYTQKSLSLSPG
[reply] 1.45
